All values here come from patent US12491180B2.

- Tested on: E. coli 11256
- assay_protocol: MIC, solid dilution method
- Format: cell-based
- condition_set: Escherichia coli; E. coli 11256; MHA agar, 37° C., 16-20 hours; read-out: MIC
For each of the compounds below, state its MIC.

Answered cases to consult:
# compound, parameter_measured, endpoint_result
measured = [
    ("CC1(C)[C@H](NC(=O)/C(=N\\O[C@@H](COc2ccc3c(c2)CN(C(=N)N(CCCN)CCCN)C3)C(=O)O)c2csc(N)n2)C(=O)N1OS(=O)(=O)O", "MIC", "< 0.015 µg/mL"),
    ("C[C@H]1[C@H](NC(=O)/C(=N\\OC(C)(C)C(=O)O)c2csc(N)n2)C(=O)N1S(=O)(=O)O [Aztreonam, aztreonam, reference compound]", "MIC", "< 0.25 µg/mL"),
]

The reported MIC value, E. coli 11256, for C[C@@H](O)[C@H]1C(=O)N2C(C(=O)O)=C(S[C@@H]3CN[C@H](C(=O)N(C)C)C3)[C@H](C)[C@H]12 [Meropenem, reference compound] reads < 0.015 µg/mL
